As shown below, each of these binders has a reported IC80 (µg/ml) with constrains value.
- TARGET OR TEST SYSTEM: HIV Env of isolate R3265.c06 (clade AE) (HIV)
- PROTOCOL SUMMARY: cell-based or functional assay
MEASUREMENT TYPE: IC80 (µg/ml) with constrains (µg/mL)

INSERT INTO results (binder, assay_result) VALUES
  ('ePGDM9 (antibody, V domains shown) VH: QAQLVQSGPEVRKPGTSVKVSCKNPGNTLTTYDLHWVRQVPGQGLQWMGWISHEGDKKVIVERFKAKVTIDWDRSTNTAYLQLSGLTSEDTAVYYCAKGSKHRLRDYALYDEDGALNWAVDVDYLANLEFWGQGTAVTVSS VL: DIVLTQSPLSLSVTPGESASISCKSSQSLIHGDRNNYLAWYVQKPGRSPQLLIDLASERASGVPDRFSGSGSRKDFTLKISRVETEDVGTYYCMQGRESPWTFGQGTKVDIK', 0.078),
  ('PGDM1400 (antibody, V domains shown) VH: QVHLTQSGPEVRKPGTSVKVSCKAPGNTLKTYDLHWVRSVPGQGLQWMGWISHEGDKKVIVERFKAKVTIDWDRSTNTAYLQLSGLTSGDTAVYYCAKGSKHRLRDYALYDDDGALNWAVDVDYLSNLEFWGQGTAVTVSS VL: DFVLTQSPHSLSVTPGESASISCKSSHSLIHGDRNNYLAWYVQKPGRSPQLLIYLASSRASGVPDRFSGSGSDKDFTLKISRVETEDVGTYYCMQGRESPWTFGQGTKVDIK', 0.075),
  ('ePGDM5 (antibody, V domains shown) VH: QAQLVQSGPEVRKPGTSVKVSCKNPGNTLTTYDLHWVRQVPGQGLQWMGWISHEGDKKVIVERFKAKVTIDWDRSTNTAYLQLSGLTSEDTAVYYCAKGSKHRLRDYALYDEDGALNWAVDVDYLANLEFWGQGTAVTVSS VL: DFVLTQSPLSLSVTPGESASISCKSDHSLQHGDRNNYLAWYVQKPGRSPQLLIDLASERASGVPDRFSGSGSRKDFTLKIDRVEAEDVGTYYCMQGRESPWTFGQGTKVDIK', 0.113);
